# target entity: human Claudin-6 (CLDN6) (human) (UniProt P56747)
# assay method text: FACS titration of labelled mAb on ARK2 cells (endogenous CLDN6+)
Catalogue of binders with associated EC50
Response body: numeric value in nM, unit text excluded.

AB13 (antibody, V domains shown) VH: QVQLQQSGAELVRPGTSVKVSCKASGYAFSNYLIEWVKQRPGQGLEWIGVINPGSGGTNYNEKFKGKATMTADKSSSTAYMHLSNLTSEDSVVYFCARSYFGRSYPYTMDYWGQGTSVTVSS VL: EIVLTQSPTTMAASPGEKITITCSASSSISSNYLHWYQQKPGFSPKLLIYRTSNLASGVPARFSGSGSGTSYSLTIGTMEAEDVATYYCQQGSSIPLTFGAGTKLELK; 1150

Please look up its EC50: AB12 (antibody, V domains shown, full-length IgG (ExpiCHO)) VH: EVKLMESGGDLVKPGGSLKLSCAASGFTFSSYAMSWVRQTPEKRLEWVASIRSGGTTYYPDSVKGRFTISRDNARNILYLRMSSLRSEDTAIYYCAKVGGNPYPMDYWGQGTSVTVSS VL: DIQMIQSPSSMFASLGDRVSLSCRASQDIGGNLDWYQQKPGGTIKLLIYSTSNLNSGVPSRFSGSGSGSDYSLTITSLESEDFADYYCLQRNAYPLTFGAGTKLELK
1300

Entry to check: AB15 (antibody, V domains shown, full-length IgG (ExpiCHO)) VH: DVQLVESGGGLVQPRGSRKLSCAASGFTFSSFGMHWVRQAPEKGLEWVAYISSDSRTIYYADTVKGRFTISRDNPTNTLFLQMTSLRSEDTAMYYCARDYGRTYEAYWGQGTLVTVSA VL: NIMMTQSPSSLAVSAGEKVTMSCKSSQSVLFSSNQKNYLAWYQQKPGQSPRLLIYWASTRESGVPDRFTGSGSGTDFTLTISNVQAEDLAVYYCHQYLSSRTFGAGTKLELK
5000
